# pIC50 values compiled below
Test System: recombinant soluble tissue factor and recombinant human factor VIIa (TF-VIIa) (Homo sapiens)
Sequence (P08709 213-466 limits assumed): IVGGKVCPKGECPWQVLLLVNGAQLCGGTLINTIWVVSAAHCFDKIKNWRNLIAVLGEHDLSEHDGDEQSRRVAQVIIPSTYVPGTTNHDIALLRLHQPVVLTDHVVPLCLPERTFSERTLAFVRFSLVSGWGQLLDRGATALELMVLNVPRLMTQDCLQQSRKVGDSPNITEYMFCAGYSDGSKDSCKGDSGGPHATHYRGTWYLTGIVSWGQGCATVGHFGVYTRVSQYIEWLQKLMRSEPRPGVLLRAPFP
Sequence (P08709 61-212 partner limits assumed): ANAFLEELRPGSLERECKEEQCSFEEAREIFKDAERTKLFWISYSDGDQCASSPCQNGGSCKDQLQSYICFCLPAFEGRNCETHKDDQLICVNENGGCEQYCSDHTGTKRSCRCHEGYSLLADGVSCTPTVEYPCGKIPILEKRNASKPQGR
Sequence (P13726 33-251 partner limits assumed): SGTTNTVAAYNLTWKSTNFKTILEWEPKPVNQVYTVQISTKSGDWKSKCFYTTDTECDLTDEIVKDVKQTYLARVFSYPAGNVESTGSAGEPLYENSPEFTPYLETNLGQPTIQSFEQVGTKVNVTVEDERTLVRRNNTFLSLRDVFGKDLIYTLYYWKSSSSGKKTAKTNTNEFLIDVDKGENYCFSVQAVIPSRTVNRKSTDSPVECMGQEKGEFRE
Test Description: TF-VIIa Assay
Measurement Context: chromogenic substrate, 60 min, room temperature, pH 8.0
pIC50: −log10 of the molar value.

{"Compound": "NCc1ccc(CNC(=O)Cn2c(=O)c(NS(=O)(=O)Cc3ccccc3)cc3ccccc32)cc1", "pIC50": "< 4.52"}
{"Compound": "N=C(N)NCCC[C@H](NC(=O)Cn1c(=O)c(NS(=O)(=O)Cc2ccccc2)cc2ccccc21)C(=O)c1nccs1", "pIC50": 5.34}
{"Compound": "CN1CCC(CCCNC(=O)Cn2c(=O)c(NS(=O)(=O)Cc3ccccc3)cc3ccccc32)CC1", "pIC50": "< 4.52"}

Ask: Given `Cc1ccc(NS(=O)(=O)Cc2ccccc2)c(=O)n1CC(=O)NCc1ccc(C(=N)N)cc1` , state its recorded pIC50.
Result: 4.64

Ask: Likewise for `N=C(N)c1ccc(CNC(=O)Cn2c(=O)c(NS(=O)(=O)Cc3ccccc3)cc3ccccc32)cc1` ?
Result: 4.34

Ask: Likewise for `O=C(Cn1c(=O)c(NS(=O)(=O)Cc2ccccc2)cc2ccccc21)NCCc1cnc[nH]1` ?
Result: < 4.52
